FYI, the data here is from PubChem BioAssay (Tox21).

- assay_comment: qHTS RealTime-Glo MT Cell Viability Assay in HEK293 cells - 16 hour (AID 1224872); note: nearly all actives have a fitted effect of over 50% in size
- condition_context: RealTime-Glo luminescence; series mostly up to 76.8 µM
Records with an inconclusive call do not appear. Calls of active or inactive are those of the source. Calls come from the whole dose curve; as a rule, active = well fitted cell-killing curve with a large enough effect in the repeat runs; inconclusive = weak or mixed curves, or effect the other way; inactive = flat fitted curve, though single readings scatter.
Outcome codes: yes (1) = active, no (0) = inactive

>>> assigned_class("Oc1cc(O)c(Cl)cc1Cl")
"no (0)"
>>> assigned_class("O=C(O)c1cccc(O)c1")
"no (0)"
>>> assigned_class("CCOC(=O)c1ccccc1OC")
"no (0)"
>>> assigned_class("Cc1cc2nc3ccc(=[N+](C)C)cc-3sc2cc1N")
"yes (1)"
>>> assigned_class("N#C[C@@H]1C[C@@H]2C[C@@H]2N1C(=O)[C@@H](N)C12CC3CC(CC(O)(C3)C1)C2")
"no (0)"
>>> assigned_class("CC1CC(O)CC(C)(C)C1 (centres undefined)")
"no (0)"
>>> assigned_class("O=C1OCCN1/N=C/c1ccc([N+](=O)[O-])o1")
"no (0)"
>>> assigned_class("CC(=O)Nc1ccccc1C")
"no (0)"
>>> assigned_class("COc1ccc(C(=O)c2cccc(O)c2)c(OC)c1")
"no (0)"
>>> assigned_class("CCOCCn1c(C2CCN(CCc3ccc(C(C)(C)C(=O)O)cc3)CC2)nc2ccccc21")
"no (0)"
>>> assigned_class("CC(=O)Oc1ccc(C(=C2CCCCC2)c2ccc(OC(C)=O)cc2)cc1")
"no (0)"
>>> assigned_class("CCOC(=N)CC(=O)OCC")
"no (0)"
>>> assigned_class("Fc1c(F)c(F)c(Br)c(F)c1F")
"no (0)"
>>> assigned_class("C=CCOC(=O)/C=C\\C(=O)OCC=C")
"no (0)"

----------
- assay_comment: qHTS assay to identify small molecule antagonists of the peroxisome proliferator-activated receptor delta (PPARd) signaling pathway - cell viability counter screen (AID 743213); note: nearly all actives have a fitted effect of over 50% in size
- condition_context: PPARd-bla HEK293H viability, CellTiter-Glo luminescence, 17 h; series mostly up to 62 µM
Records with an inconclusive call do not appear. Calls of active or inactive are those of the source. Calls follow the shape of the dose curve; as a rule, active = well fitted cell-killing curve with a large enough effect in the repeat runs; inconclusive = weak or mixed curves; inactive = no such curve, though single readings can be large or run the other way.
Outcome codes: y (active), n (inactive)

>>> assigned_class("Cc1oncc1C(=O)Nc1ccc(C(F)(F)F)cc1")
"y"
>>> assigned_class("CCCCCCOC(=O)CCCCCCCC(=O)OCCCCCC")
"n"
>>> assigned_class("CC(CCO)CCc1ccccc1 (stereo not drawn)")
"n"
>>> assigned_class("NC(=O)Nc1ccc(Cl)cc1")
"n"
>>> assigned_class("C=CC(=O)NCOCC(C)C")
"n"
>>> assigned_class("Cn1c(=O)c2c(ncn2CC(=O)O)n(C)c1=O")
"n"
>>> assigned_class("Cc1nc2ccccn2c(=O)c1CCN1CCC(C(=O)c2ccc(F)cc2)CC1")
"n"
>>> assigned_class("Cc1nc2ccccc2s1")
"n"
>>> assigned_class("COC(=O)c1cc(S(N)(=O)=O)ccc1OC")
"n"
>>> assigned_class("CO[Si](C)(OC)OC")
"n"
>>> assigned_class("CC(COc1ccc(C(C)(C)C)cc1)OS(=O)OCCCl (stereo not drawn)")
"n"
>>> assigned_class("CC(C)(O)c1ccccc1CC[C@@H](SCC1(CC(=O)O)CC1)c1cccc(/C=C/c2ccc3ccc(Cl)cc3n2)c1")
"n"
>>> assigned_class("CCc1nn(CCCN2CCN(c3cccc(Cl)c3)CC2)c(=O)n1CCOc1ccccc1")
"n"
